# credit: paper PMC7347456

targetDesc: full-length human LRH-1 S148R (human, UniProt O00482 1-541, S148R)
Sequence (O00482 whole entry S148R): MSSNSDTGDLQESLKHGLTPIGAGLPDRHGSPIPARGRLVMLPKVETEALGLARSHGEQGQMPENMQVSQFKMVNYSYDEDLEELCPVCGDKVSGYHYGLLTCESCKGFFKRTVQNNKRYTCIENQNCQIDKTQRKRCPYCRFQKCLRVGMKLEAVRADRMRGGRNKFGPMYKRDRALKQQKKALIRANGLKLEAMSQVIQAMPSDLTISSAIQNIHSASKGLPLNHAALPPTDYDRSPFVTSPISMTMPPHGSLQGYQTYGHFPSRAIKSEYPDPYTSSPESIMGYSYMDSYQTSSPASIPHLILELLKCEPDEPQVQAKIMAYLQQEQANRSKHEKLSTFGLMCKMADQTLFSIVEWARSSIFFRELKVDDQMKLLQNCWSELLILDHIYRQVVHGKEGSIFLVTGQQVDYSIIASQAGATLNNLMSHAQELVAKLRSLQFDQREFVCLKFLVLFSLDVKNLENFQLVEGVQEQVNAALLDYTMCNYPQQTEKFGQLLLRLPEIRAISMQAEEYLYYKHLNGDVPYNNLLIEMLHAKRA
assayName: fluorescence polarisation
Ends that are not written are not given here.
quantity: Kd (µM)
Form entry: value (µM) — number only.

Query string: Recorded Kd of {FAM}-EEPSLLKKLLLAPA [N-terminally FAM-labeled PGC1α co-regulator peptide (740-EEPSLLKKLLLAPA-753)] , please.
Result string: 7.03
